# SYSTEM NAME: Melanocortin receptor 3 (Mus musculus, UniProt P33033)
# Sequence (P33033 whole entry): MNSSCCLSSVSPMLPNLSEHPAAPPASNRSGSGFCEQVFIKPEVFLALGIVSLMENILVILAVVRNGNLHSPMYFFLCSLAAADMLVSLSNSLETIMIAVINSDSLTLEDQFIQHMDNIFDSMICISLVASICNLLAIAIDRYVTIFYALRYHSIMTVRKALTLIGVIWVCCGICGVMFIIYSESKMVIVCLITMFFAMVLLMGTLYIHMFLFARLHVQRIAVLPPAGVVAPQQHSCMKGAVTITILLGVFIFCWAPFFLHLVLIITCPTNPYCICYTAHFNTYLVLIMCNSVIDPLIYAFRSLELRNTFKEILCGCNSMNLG
# EXPERIMENT: Agonist activity at mouse melanocortin receptor 3 expressed in HEK293 cells assessed as stimulation of intracellular cAMP accumulation incubated for 24 hrs by beta-galactosidase reporter gene assay
# Assay type: functional, cell-based
pEC50: −log10 of the molar value.
REPORTED METRIC: pEC50

CC(C)C[C@@H]1CNC(=N)N1C[C@@H]1CCCN1C[C@@H](CC1CCCCC1)N1C[C@@H]([C@@H](C)O)N(CC2CCC(C(C)(C)C)CC2)C1=N (some centres undefined): 6.68

A. CC(C)[C@@H]1CNC(=N)N1C[C@@H]1CCCN1C[C@@H](CC1CCCCC1)N1C[C@@H]([C@@H](C)O)N(CC23CC4CC(CC(C4)C2)C3)C1=N
B. CC(C)[C@@H]1CNC(=N)N1C[C@@H]1CCCN1C[C@@H](CC1CCCCC1)N1C[C@@H](C(C)C)N(CC23CC4CC(CC(C4)C2)C3)C1=N
C. CCC[C@@H]1CN([C@H](Cc2ccccc2)CN2CCC[C@H]2CN2C(=N)NC[C@H]2C(C)C)C(=N)N1CC1CCC(C(C)(C)C)CC1 (some centres undefined)
D. CC(C)[C@@H]1CNC(=N)N1C[C@@H]1CCCN1C[C@@H](CC1CCCCC1)N1C[C@@H]([C@@H](C)O)N(CC2CCC(C(C)(C)C)CC2)C1=N (some centres undefined)
QUERY: Arrange items by their pEC50 values in increasing order. List the labels in the requested order.
RESULT: C, B, A, D

1. CC(C)C[C@@H]1CNC(=N)N1C[C@@H]1CCCN1C[C@@H](Cc1ccccc1)N1C[C@@H]([C@@H](C)O)N(CC2CCC(C(C)(C)C)CC2)C1=N (some centres undefined)
2. CC(C)[C@@H]1CNC(=N)N1C[C@@H]1CCCN1C[C@@H](Cc1ccccc1)N1C[C@@H](C(C)C)N(CC23CC4CC(CC(C4)C2)C3)C1=N
QUERY: Param pair: 1 , 2 . Output: the one whose pEC50 is numerically greater. Identify your selection by its label.
RESULT: 1

P. CC(C)C[C@@H]1CNC(=N)N1C[C@@H]1CCCN1C[C@@H](CC1CCCCC1)N1C[C@@H]([C@@H](C)O)N(CC23CC4CC(CC(C4)C2)C3)C1=N
Q. CC(C)[C@@H]1CNC(=N)N1C[C@@H]1CCCN1C[C@@H](Cc1ccccc1)N1C[C@@H]([C@@H](C)O)N(CC2CCC(C(C)(C)C)CC2)C1=N (some centres undefined)
QUERY: Which value of pEC50 is smaller, the one for P or the one for Q ? Selection: enter the item's label.
RESULT: Q
(Q: 6.38, P: 6.62)

I. CC(C)C[C@@H]1CNC(=N)N1C[C@@H]1CCCN1C[C@@H](Cc1ccccc1)N1C[C@@H]([C@@H](C)O)N(CC23CC4CC(CC(C4)C2)C3)C1=N
II. CC(C)CCCN1C(=N)N([C@H](CC2CCCCC2)CN2CCC[C@H]2CN2C(=N)NC[C@H]2C(C)C)C[C@H]1[C@@H](C)O
QUERY: In the pair I and II , the larger recorded pEC50 belongs to which? I would appreciate it if you answered with the label of your choice.
RESULT: I

I. CC(C)[C@@H]1CNC(=N)N1C[C@@H]1CCCN1C[C@@H](Cc1ccccc1)N1C[C@@H]([C@@H](C)O)N(CC23CC4CC(CC(C4)C2)C3)C1=N
II. CC(C)[C@@H]1CNC(=N)N1C[C@@H]1CCCN1C[C@@H](CC1CCCCC1)N1C[C@@H](C(C)C)N(CC2CCC(C(C)(C)C)CC2)C1=N (some centres undefined)
QUERY: Could you kindly indicate whether I or II has the higher pEC50 value? Lab note: record the label of whichever item you select.
RESULT: I
(I: 6.44, II: 5.37)
